Values were extracted from patent US20090181981A1.

Experiment: Crystalline CPTP stability summary (storage at controlled temperature and relative humidity)
Type: physicochemical
Details: 40° C. 60% relative humidity, 1 Month
VALUE TYPE: Total Impurities (%)
Numbers only, in %.

Input line: Give recorded Total Impurities. O=C(Nc1cnccn1)[C@H](CC1CCOCC1)c1ccc(S(=O)(=O)C2CC2)cc1 [Crystalline CPTP]
Output line: 0.2

* * *

Test: Crystalline CPTP stability summary (storage at controlled temperature and relative humidity)
Format: physicochemical
Conditions: 40° C. 60% relative humidity, 3 Months
VALUE TYPE: Total Impurities (%)
Give bare numbers, in %.

Input line: Return the recorded Total Impurities value; entry: `O=C(Nc1cnccn1)[C@H](CC1CCOCC1)c1ccc(S(=O)(=O)C2CC2)cc1`
Output line: 0.25

* * *

Experiment: Crystalline CPTP stability summary (storage at controlled temperature and relative humidity)
Assay type: physicochemical
Conditions: 25° C. 60% relative humidity, 3 months
VALUE TYPE: Total Impurities (%)
One number for each entry, in %.

Input line: Read the entry `O=C(Nc1cnccn1)[C@H](CC1CCOCC1)c1ccc(S(=O)(=O)C2CC2)cc1` and write its reported Total Impurities.
Output line: 0.23

* * *

Test: Crystalline CPTP stability summary (storage at controlled temperature and relative humidity)
Assay type: physicochemical
Settings: 25° C. 60% relative humidity, Initial
VALUE TYPE: Total Impurities (%)
Answers are plain numbers, in %.

Input line: Give Total Impurities for `O=C(Nc1cnccn1)[C@H](CC1CCOCC1)c1ccc(S(=O)(=O)C2CC2)cc1`
Output line: 0.25

* * *

Test: Crystalline CPTP stability summary (storage at controlled temperature and relative humidity)
Format: physicochemical
Settings: 40° C. 60% relative humidity, Initial
VALUE TYPE: Total Impurities (%)
Answers are plain numbers, in %.

Input line: Determine its reported Total Impurities: `O=C(Nc1cnccn1)[C@H](CC1CCOCC1)c1ccc(S(=O)(=O)C2CC2)cc1`
Output line: 0.25

* * *

Assay: Crystalline CPTP stability summary (storage at controlled temperature and relative humidity)
Type: physicochemical
Details: 25° C. 60% relative humidity, 1 month
Procedure: Crystalline CPTP has an onset of melting as measured by differential scanning calorimetry of 156° C., which renders it acceptable for standard industrial processes such as milling. […]
VALUE TYPE: Total Impurities (%)
Answers are plain numbers, in %.

Input line: Output measured Total Impurities for this item: `O=C(Nc1cnccn1)[C@H](CC1CCOCC1)c1ccc(S(=O)(=O)C2CC2)cc1`
Output line: 0.18
